Can you tell me AC50 cell viability for the items I'm about to list?
test system: HCT116; test: AC50 cell viability (CellTiter-Glo); higher = less potent; details: 48 h
Give bare numbers, in nM.

Lab note: each compound below needs its AC50 cell viability filled in.
1. CCCCc1ccc2[nH]c(NC(=O)OC)nc2c1
2. Cc1c(CN2CCN([S+](C)(=O)[O-])CC2)sc2c(N3CCOCC3)nc(-c3cnc(N)nc3)nc12
3. O=C(/C=C/C=C/c1ccc2c(c1)OCO2)N1CCCCC1
4. O=C1N\N=C(\CC2=CC=CC(=C2)C(=O)N3CCN(CC3)C4=NC=CC=C4C#N)C5=CC=CC=C15

[105, 590, 20900, 5250]

Lab note: each compound below needs its AC50 cell viability filled in.
1. Cc1ccc(C(N)=O)cc1Nc1nccc(-c2cn(C(C)C)c3cnccc23)n1
2. CC(C)c1c(C(=O)Nc2ccccc2)c(-c2ccccc2)c(-c2ccc(F)cc2)n1CC[C@@H](O)C[C@@H](O)CC(=O)O

2090
12900

Suppose we examine the compound CC[C@@H](C)Nc1cc(C(=O)NC2CC3CC[C@@H](C2)N3c2ccc(C(=O)C3CC3)cn2)c(C)cc1C(N)=O (some centres not stated) ; what AC50 cell viability value has been reported? 83.3

---

Can you tell me efficacy for the items I'm about to list?
system: HCT116; experiment: efficacy (fitted maximal change in viability relative to DMSO control); higher = less cytotoxic (negative = loss of viability); details: 48 h
Numbers only, in %.

# Molecule, Value Unit, Result Value
rows = [
    ("CC(N[C@H]1C[C@@H]1c1ccccc1)c1ccc2c(c1)OCCO2 (stereo partly drawn) [LSD1-C76]", "%", -23.9),
    ("O=C(NCC(=O)N1CC[C@H](NC2CCC(O)(c3ccc(-c4ncccn4)cn3)CC2)C1)c1cccc(C(F)(F)F)c1 (stereo partly drawn)", "%", -47),
    ("CC1=C(F)C=CC(=C1)N2C(=O)\\C=C/C3=C2C4=C([NH]C=C4)N=C3 [STK16-IN-1]", "%", -45.7),
    ("OCCNC1CCCc2c1[nH]c1ccc(-c3ccccc3)cc21 (stereo not drawn) [CASIN]", "%", -95.3),
    ("COc1cc([C@H]2Oc3cc([C@H]4Oc5cc(O)cc(O)c5C(=O)[C@@H]4O)ccc3O[C@@H]2CO)ccc1O [Silybin]", "%", -13.3),
]

Lab note: each molecule below needs its efficacy filled in.
1. CNC(=O)c1ccccc1Sc1ccc2c(/C=C/c3ccccn3)n[nH]c2c1 [Axitinib]
2. CC(C)(Sc1ccc(CCN(CCCCC2CCCCC2)C(=O)NC2CCCCC2)cc1)C(=O)O [GW-7647]
3. CC(O)(C[S+](=O)([O-])c1ccc(F)cc1)C(=O)Nc1ccc(C#N)c(C(F)(F)F)c1 (stereo not drawn) [Bicalutamide]

1: -80.4; 2: -45.1; 3: -14.2

---

tested on: HCT116; assay: efficacy (fitted maximal change in viability relative to DMSO control); higher = less cytotoxic (negative = loss of viability); conditions: 48 h
Where a name gives a salt, the structure may show the parent alone.
Assign class by efficacy: not lower than -70% means TRUE; lower than -70% means FALSE.

# Compound, Classification
records = [
    ("OC1=CC=C(C=C1)C/2=C/C3=C(OC2)C=C(O)C=C3 [Idronoxil]", "FALSE"),
    ("N=C1N[C@H]2[C@H](CS[C@H]2CCCCC(=O)O)N1 [2-Iminobiotin]", "TRUE"),
    ("Cc1ccc(C(=O)OCc2ccc([C@@H](CN)C(=O)Nc3ccc4cnccc4c3)cc2)c(C)c1 [Netarsudil]", "FALSE"),
    ("CC(NC1=CC=CC=C1)C\\2=C\\C(=C/N3C(=O)\\C=C(/N=C23)N4CCOCC4)C (stereo not drawn) [TGX-221]", "TRUE"),
    ("CCN(CC)Cc1ccc2cc(COC(=O)Nc3ccc(C(=O)NO)cc3)ccc2c1 [Givinostat hydrochloride]", "FALSE"),
    ("CC(=O)OCC(CCn1cnc2cnc(N)nc21)COC(C)=O [Famciclovir]", "TRUE"),
]

# next compound below
Check if efficacy >= -70% (inclusive). Item: Cc1cccc(C)c1NC(=O)CN1CCCC1=O [Nefiracetam] TRUE

---

tested on: HCT116; assay: AC50 cell viability (CellTiter-Glo); higher = less potent; details: 48 h
Counter-ions that a name gives are not always drawn.
Test Readout: AC50 cell viability (µM)
Answers are plain numbers, in µM.

Guide cases for AC50 cell viability, answers given:
# Molecule, Value Unit, Result Value
data = [
    ("O=C(/C=C\\n1cnc(-c2cc(C(F)(F)F)cc(C(F)(F)F)c2)n1)N1CC(F)(F)C1", "µM", 0.59),
    ("Cn1ncc2cc(-c3cnc(N)c(Cl)c3N3CCC4(CCNC4=O)CC3)ccc21", "µM", 16.6),
    ("COc1cc(C)c(Sc2cnc(NC(=O)c3ccc(CNC(C)C(C)C)cc3)s2)cc1C(=O)N1CCN(C(C)=O)CC1 (stereo not given)", "µM", 14.8),
    ("Cc1c(N)nc([C@H](CC(N)=O)NC[C@@H](N)C(N)=O)nc1C(=O)N[C@H](C(=O)N[C@@H](C)[C@H](O)[C@@H](C)C(=O)N[C@@H](C(=O)NCCc1nc(-c2nc(C(=O)NCCC[S+](C)C)cs2)cs1)[C@@H](C)O)C(O[C@H]1O[C@H](CO)[C@H](O)[C@@H](O)[C@H]1O[C@H]1O[C@H](CO)[C@@H](O)[C@H](OC(N)=O)[C@@H]1O)c1c[nH]cn1 (stereo not given in full) [Bleomycin sulfate]", "µM", 1.62),
]

In the following, a different molecule is considered.
Suppose we examine the molecule `COC(=O)/C=C/C(=O)N(O)CCCCNCc1ccc(COC(=O)Nc2cccc3ccccc23)cc1` ; what AC50 cell viability value has been reported? 20.9

---

Can you tell me efficacy for the items I'm about to list?
tested on: HCT116; test: efficacy (fitted maximal change in viability relative to DMSO control); higher = less cytotoxic (negative = loss of viability); settings: 48 h
One number for each entry, in %.

Guide cases for efficacy, answers given:
# Compound, Experimental Target, Value Unit, efficacy
rows = [
    ("Nc1ncnc2c1c(-c1cccc(OCc3ccccc3)c1)cn2[C@H]1C[C@H](CN2CCCC2)C1 [ADW-742]", "HCT116", "%", -84.3),
    ("Cc1cc(NC(=O)Nc2ccc(N(C)C)cc2)c2cc(F)cc(F)c2n1", "HCT116", "%", -37.6),
    ("C[C@H](Nc1nc(N[C@H](C)C(F)(F)F)nc(-c2cccc(Cl)n2)n1)C(F)(F)F [AG-881]", "HCT116", "%", -28.1),
]

In the following, a different compound is considered.
Suppose we examine the compound `COc1cc(-c2cc(-c3ccc(N4CCNCC4)cc3)cnc2C)cc(OC)c1OC` ; what efficacy value has been reported? -57.2

---

system: HCT116; test: efficacy (fitted maximal change in viability relative to DMSO control); higher = less cytotoxic (negative = loss of viability); conditions: 48 h
Structures can show the parent of a compound that is named as a salt.
Can you tell me efficacy for the items I'm about to list?
Give bare numbers, in %.

Guide cases for efficacy, answers given:
# Molecule, efficacy / %
data = [
    ("CC(C)[N]1C=C(C)C2=C1C=C(C=C2C(=O)NC\\C3=C(C)\\C=C(C)/NC3=O)C4=CC=C(N=C4)N5CCN(C)CC5", -96.9),
    ("Cc1cc(I)ccc1Nc1c(C(=O)NOCC2CC2)cc(F)c(F)c1F", -95.1),
    ("COC(=O)Nc1ccc(-c2nc(N3CCOCC3)c3cnn(C4CCN(C(=O)OC)CC4)c3n2)cc1", -56.3),
    ("O=C(O)/C(S)=C/c1ccc(I)cc1", -6.45),
    ("CC[C@H](NC(=O)[C@H](C)NC)C(=O)N1C[C@@H](O)C[C@H]1Cc1c(-c2[nH]c3cc(F)ccc3c2C[C@@H]2C[C@H](O)CN2C(=O)[C@H](CC)NC(=O)[C@H](C)NC)[nH]c2cc(F)ccc12", -49.9),
    ("O=C(O)c1cccc(-c2noc(-c3ccccc3F)n2)c1", -22.5),
    ("CC(C)(C)C(=O)OCOP(=O)(COCCn1cnc2c(N)ncnc21)OCOC(=O)C(C)(C)C", -55.3),
    ("C#C[C@]1(O)CC[C@H]2[C@@H]3CCc4cc(OC)ccc4[C@H]3CC[C@@]21C", -33.5),
]

Lab note: each molecule below needs its efficacy filled in.
1. CC(COc1ccccc1)N(CCCl)Cc1ccccc1 (stereo not given) [Phenoxybenzamine hydrochloride]
2. CNc1nc(-c2ccc3c(N)n[nH]c3c2)cc(N2C[C@@H](C(=O)NC3CCCCC3)CC[C@H]2C)n1
3. Cc1cc(Oc2ccc3nc(COc4ccc(CC5SC(=O)NC5=O)cc4)n(C)c3c2)cc(C)c1N (stereo not given)

1. -19.8
2. -110
3. -24.7

Lab note: each molecule below needs its efficacy filled in.
1. N#Cc1c(N(CC(=O)[O-])CC(=O)[O-])sc(C(=O)[O-])c1CC(=O)[O-] [Strontium Ranelate]
2. COc1cccc(Nc2c(C(N)=O)cnc3c(C)cc([S+](=O)([O-])c4cccc(C(=O)N(C)C)c4)cc23)c1
3. O=C1Nc2ccc(Cl)cc2[C@@](C#CC2CC2)(C(F)(F)F)O1
4. Cc1c(-c2ccc(-c3ccccc3F)cc2)nc2ccc(F)cc2c1C(=O)O

1: -15.5; 2: -45.1; 3: -85.4; 4: -62.1
